- TESTED_TARGET: T1, human β-klotho (human, UniProt Q86Z14 1-1044)
- T1 sequence (looked up): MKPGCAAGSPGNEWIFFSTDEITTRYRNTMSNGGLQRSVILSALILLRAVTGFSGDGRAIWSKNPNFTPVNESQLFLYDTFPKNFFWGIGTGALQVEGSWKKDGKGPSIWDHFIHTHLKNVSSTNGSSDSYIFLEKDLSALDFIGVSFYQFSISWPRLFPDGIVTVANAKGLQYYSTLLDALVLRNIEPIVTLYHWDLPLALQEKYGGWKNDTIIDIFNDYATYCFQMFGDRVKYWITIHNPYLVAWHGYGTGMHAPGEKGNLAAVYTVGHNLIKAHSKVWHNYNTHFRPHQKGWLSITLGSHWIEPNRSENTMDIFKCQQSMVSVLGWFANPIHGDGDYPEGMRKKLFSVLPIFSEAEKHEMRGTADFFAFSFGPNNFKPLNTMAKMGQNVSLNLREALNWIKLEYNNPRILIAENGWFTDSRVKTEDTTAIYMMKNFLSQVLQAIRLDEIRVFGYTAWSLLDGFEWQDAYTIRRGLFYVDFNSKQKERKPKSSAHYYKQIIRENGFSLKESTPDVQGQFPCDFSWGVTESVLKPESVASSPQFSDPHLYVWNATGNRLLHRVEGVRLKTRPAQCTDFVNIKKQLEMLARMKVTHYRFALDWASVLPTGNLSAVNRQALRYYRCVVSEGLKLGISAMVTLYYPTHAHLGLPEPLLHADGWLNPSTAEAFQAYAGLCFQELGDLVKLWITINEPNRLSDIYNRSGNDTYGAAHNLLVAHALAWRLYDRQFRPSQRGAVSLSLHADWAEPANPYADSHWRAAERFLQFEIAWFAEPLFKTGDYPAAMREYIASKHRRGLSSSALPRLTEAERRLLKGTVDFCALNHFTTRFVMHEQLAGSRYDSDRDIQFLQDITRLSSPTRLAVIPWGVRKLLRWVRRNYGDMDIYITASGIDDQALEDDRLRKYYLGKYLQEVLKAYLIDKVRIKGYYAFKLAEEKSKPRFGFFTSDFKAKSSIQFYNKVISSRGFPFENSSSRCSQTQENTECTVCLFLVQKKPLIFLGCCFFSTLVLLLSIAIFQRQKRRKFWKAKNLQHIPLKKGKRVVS
- ASSAY: cell-based or functional assay
List of Fold-WT (EC50 of variant / EC50 of FGF21-WT) values.
OUTCOME_MEASURE: Fold-WT (EC50 of variant / EC50 of FGF21-WT) (fold)

binder="hFGF21(33-209)-V60 (ligand) DSSPLLQFGGQVRQRYLYTDDACQTEAHLEIREDGTVGGAAHQSPESLLELKALKPGVIQILGVKTSRFLCQRPDGTLYGSLHFDPEACSFRELLLENGYNVYQSEAHGLPLHLPCNRSPHRDPASRGPARFLPLPGLPPAPPEPPGILAPQPPDVGSSDPLAMVGPSQGRSPSYAS" endpoint_result=2.2
binder="hFGF21(33-209)-V16 (ligand) DSSPLLQFGGQVRQRYLYTDDAQETEAHLEIREDGTVGGAAHQSPESLLQLKALKPGVIQILGVKASRFLCQKPDGALYGSLHFDPEACSFRELLLENGYNVYQSEAHGLPLHLPGNRSPHRDPAPQGPARFLPLPGLPPALPEPPGILAPQPPDVGSSDPLAMVGPSQGRSPSYAS" endpoint_result=6.5
binder="hFGF21(33-209)-V79 (ligand) DSSPLLQFGGQVRQRYLYTDDAQQTEAHLEIREDGTVGGAAHQSPESLLELKALKPGVIQILGVKTSRFLCQKPDGALYGSLHFDPEACSFRELLLEDGYNVYQSEAHGLPLHLPGNRSPHCDPAPQGPARFLPLPGLPPALPEPPGILAPQPPDVGSSDPLAMVGPSQARSPSYAS" endpoint_result=0.4
binder="hFGF21(33-209)-V85 (ligand) DSSPLLQFGGQVRQRYLYTDDAQQTEAHLEIREDGTVGGAAHQSPESLLELKALKPGVIQILGVKTSRFLCQKPDGALYGSLHFDPEACSFRELLLEEGYNVYQSEAHGLPLHLPGNRSPHCDPAPQGPARFLPLPGLPPALPEPPGILAPQPPDVGSSDPLAMVGPSQGRSPSYAS" endpoint_result=0.3
binder="hFGF21(33-209)-V58 (ligand) DSSPLLQFGGQVRQRYLYTDDAQQTEAHLEIREDGTVGGAAHQSPESLLQLKALKPGVIQILGVKTSRFLCQRPDGTLYGSLHFDPEACSFRELLLENGYNVYQSETHGLPLHLPGNRSPHRDPASQGPARFLPLPGLPPAPPEPPGILAPQPPDVGSSDPLAMVGPSQARSPSYAS" endpoint_result=2.6
binder="hFGF21(33-209)-V76 (ligand) DSSPLLQFGGQVRQRYLYTDDAQETEAHLEIREDGTVGGAAHQSPESLLELKALKPGVIQILGVKTSRFLCQKPDGALYGSLHFDPEACSFRELLLEDGYNVYQSEAHGLPLHLPGNRSPHCDPAPQGPARFLPLPGLPPALPEPPGILAPQPPDVGSSDPLAMVGPSQGRSPSYAS" endpoint_result=0.47
